Data origin, for the record: PubChem BioAssay (NCI)

Each item that follows carries a reported growth.
- Tested on: SNB-19 CNS
- PROCEDURE DETAILS: NCI-60 one-dose screen, 48 h (100 = growth as untreated, 0 = no growth, -100 = all killed)
- STUDY CONDITIONS: 10 µM unless noted
Compounds without any hit were thinned out: in the full panel of roughly 83,000, 20% have a hit.

| COMPOUND | growth, % |
| --- | --- |
| O=S(=O)(c1ccc(NCSc2nc3ccccc3s2)cc1)c1ccc(NCSc2nc3ccccc3s2)cc1 | 95.9 |
| Cc1ccc(C2(C)NC(=O)N(CC(=O)Nc3cccc(C)c3)C2=O)cc1 (stereo not given) | 102 |
| CCOC(=O)c1cnc2sc(-c3ccc(OC)cc3)nc2c1Cl | 104 |
| COc1cc(C(=O)/C=C/c2c(-c3cccs3)nc3sc(C)cn23)cc(OC)c1OC | 15.5 |
| COc1ccc(NC(=O)c2ccc(Cl)cc2Cl)cc1 | 104 |
| C#Cc1ccc(NC(=O)Cc2ccc(/C=C/C(=O)c3nccn3C)cc2)cc1 | 39.3 |
| Cc1ccc2c(c1)CC(O)CC1C(=O)N(CCO)CC(=O)N21 (stereo not given) | 102 |
| CNC1=C(Br)C(=O)c2c(C(=O)OC)c(C)nc(C)c2C1=O | 82.9 |
| COc1cc2cc(Oc3ccc(NC(=O)Nc4ccc(Cl)c(Cl)c4)cc3)c(C)nc2cc1OCCN1CCCCC1 | 99.3 |
| Cc1c(Cl)cccc1NC(=O)c1sc2nc3c(cc2c1N)CCCC3 | 32.6 |

----------
- Tested on: SF-539 CNS
- PROCEDURE DETAILS: NCI-60 one-dose screen, 48 h
- STUDY CONDITIONS: 10 µM unless noted
This is part of a sample that, as a whole, favours compounds with a hit. Of some 83,000 tested, about 20% had one in any assay. Active and inactive are the calls of the source. The calls were made as follows: active = growth percent below 10; inactive = the rest.
Labels: TRUE = active, FALSE = inactive

| COMPOUND | ANSWER LABEL |
| --- | --- |
| Nc1nc(N)c2c(n1)NC(c1ccc3c(c1)OCO3)CC(c1cccc(Nc3ccncc3)c1)=N2 (centres undefined) | FALSE |
| O=C(Cn1cc(CSc2nc3ccccc3o2)nn1)Nc1ccc([N+](=O)[O-])cc1 | FALSE |
| CNC1=C(Br)C(=O)c2c(C(=O)OC)c(C)nc(C)c2C1=O | FALSE |
| COc1ccc(/C=C2/CCc3cc4ccc(OC)cc4[o+]c32)c(O)c1 | FALSE |
| COc1cc(/C=C/c2cc(/C=C/c3ccc(O)c(OC)c3)n(C(=O)Nc3ccc(C)cc3C)n2)ccc1O | TRUE |
| [2H]C([2H])([2H])Oc1c(F)cccc1/C=C/C(=O)/C=C(O)/C=C/c1cccc(F)c1OC([2H])([2H])[2H] | FALSE |
| C=C(C[n+]1ccccc1)[C@@H]1CC[C@]2(C(=O)OC)CC[C@]3(C)[C@H](CC[C@@H]4[C@@]5(C)CCC(=O)C(C)(C)[C@@H]5CC[C@]43C)[C@@H]12 | FALSE |
| O=C1C(Nc2ccc(Br)cc2)=C(I)C(=O)c2ncccc21 | FALSE |
| O=C(/C=C\c1ccc(O)c(O)c1)c1ccccc1O | FALSE |
| O=C(c1ccc(F)cc1)C1CCN(CCn2c(=O)[nH]c3ccccc3c2=O)CC1 | FALSE |
| O=C(CSc1nnc(-c2ccc(Cl)c(Cl)c2)n1-c1ccccc1)Nc1ccc(C(=O)/C=C/c2ccc(Cl)cc2)cc1 | FALSE |
| COc1ccc(C(c2cc(OC)c(OC)c(OC)c2)n2cncn2)cc1O (centres undefined) | TRUE |
| COc1cc(-c2c(-c3ccccc3)c[nH]c2C(=O)NCCCO)c(OC)c2c1OCO2 | FALSE |
| O=c1cc(-c2nccc3c2[nH]c2ccccc23)c2cc(Cl)ccc2o1 | FALSE |
| COc1ccc(Nc2nccc(Nc3ccc4[nH]ncc4c3)n2)cc1 | FALSE |
| COc1cc2c(c(OC)c1OC)CCC(c1cccc(C(=O)Nc3ccc([N+](=O)[O-])cc3)c1)O2 (centres undefined) | FALSE |
| COc1ccc(C2=C/C(=C\c3ccccc3O)C(=O)N2Cc2ccccc2)cc1 | FALSE |
| COc1cccc(-c2cc(-c3ccc(Nc4nc(Nc5ccc(Cl)cc5)nc(Nc5ccc(Cl)cc5)n4)cc3)nc(N)c2C#N)c1 | TRUE |
| CCN(CC)c1ccc(/C=N/NC(=O)c2ccccc2Nc2ccnc(C(F)(F)F)c2)c(O)c1 | TRUE |
